Assay: Excitation and fluorescence emission wavelength measurement
Assay type: physicochemical
Parameters: unit not given here
Settings: aqueous solution: 10 mg/mL solution in DMSO diluted 500-fold with purified water
Classes are defined on Stokes shift (λem − λex) with ranges low band: < 60; middle band: ≥ 60 and < 100; high band: ≥ 100

Example entries begin here.
molecule | category-label
C=CCN1C(=O)/C(=c2\s/c(=C/c3ccc4c(c3)C3CCCC3N4c3ccc(C=C(c4ccccc4)c4ccccc4)cc3)c(=O)n2CC(=O)OCC)SC1=S (stereo not drawn) | low band
O=C(O)CN1C(=O)/C(=C\c2ccc3c(c2)C2CCCC2N3Cc2ccccc2)SC1=S (stereo not drawn) | middle band
CCN1C(=O)/C(=c2\s/c(=C/c3ccc4c(c3)C3CCCC3N4c3ccccc3)c(=O)n2CC(=O)O)SC1=S (stereo not drawn) | high band
CC1=NN(c2ccccc2)C(=O)/C1=C\c1cc(Br)c2c(c1)C1CCCC1N2c1ccc(Br)cc1 (stereo not drawn) | low band
CCN1C(=O)/C(=c2/s/c(=C/c3ccc4c(c3)C3CCCC3N4CC)c(=O)n2CC(=O)O)SC1=S (stereo not drawn) | low band
COc1ccc2cc(N3c4ccc(/C=C5\C(=O)N(c6ccc(C(=O)O)cc6)N=C5C)cc4C4CCCC43)ccc2c1 (stereo not drawn) | middle band

Data request: Band of CCN1C(=O)/C(=c2/s/c(=C/c3ccc4c(c3)C3CCCC3N4c3ccc(C=C(c4ccccc4)c4ccccc4)cc3)c(=O)n2CC(=O)O)SC1=S (stereo not drawn) ?
Data returned: high band

Data request: Band of O=C(O)C[n+]1c(/C=C/c2ccc3c(c2)C2CCCC2N3Cc2ccccc2)sc2ccccc21 (stereo not drawn) ?
Data returned: low band

Data request: Band of O=C(O)CN1C(=O)/C(=C\c2cc(Br)c3c(c2)C2CCCC2N3c2ccc(Br)cc2)SC1=S (stereo not drawn) ?
Data returned: high band

Data request: Band of O=C(O)CN1C(=O)/C(=C\c2cc(Br)c3c(c2)C2CCCC2N3Cc2ccccc2)SC1=S (stereo not drawn) ?
Data returned: high band

Data request: Band of COc1ccc(N2c3ccc(/C=C(\C#N)C(=O)O)cc3C3CCCC32)cc1 (stereo not drawn) ?
Data returned: high band

Data request: Band of CCCCN1C(=O)/C(=c2\s/c(=C/c3ccc4c(c3)C3CCCC3N4c3ccccc3)c(=O)n2CC(=O)OCC)SC1=S (stereo not drawn) ?
Data returned: low band

Data request: Band of O=C(O)Cn1c(=O)/c(=C\c2ccc3c(c2)C2CCCC2N3c2ccccc2)s/c1=C1/SC(=S)N(Cc2ccccc2)C1=O (stereo not drawn) ?
Data returned: middle band
